target: Casein kinase I isoform gamma-3 (Homo sapiens); assay: Inhibition of CSNK1G3
Sequence (Q9Y6M4 whole entry, canonical isoform): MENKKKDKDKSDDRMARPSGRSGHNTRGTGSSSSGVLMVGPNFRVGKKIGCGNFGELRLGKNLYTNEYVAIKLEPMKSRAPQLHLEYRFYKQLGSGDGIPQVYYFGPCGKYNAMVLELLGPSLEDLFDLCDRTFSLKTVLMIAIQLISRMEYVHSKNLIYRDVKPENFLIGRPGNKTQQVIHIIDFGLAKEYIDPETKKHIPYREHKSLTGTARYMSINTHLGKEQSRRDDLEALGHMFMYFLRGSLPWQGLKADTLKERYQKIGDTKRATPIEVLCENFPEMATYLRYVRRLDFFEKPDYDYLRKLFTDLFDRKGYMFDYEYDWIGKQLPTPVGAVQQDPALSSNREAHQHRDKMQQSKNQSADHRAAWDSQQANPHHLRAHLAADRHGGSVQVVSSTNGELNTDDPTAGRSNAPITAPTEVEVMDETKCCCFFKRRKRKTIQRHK
pIC50: −log10 of the molar value.
MEASURED ENDPOINT: pIC50

Q: Determine reported pIC50 for `CC(C)(C)NS(=O)(=O)c1cncc(-c2ccn3nc(N)nc3c2)c1` ; test system: Casein kinase I isoform gamma-3 (Homo sapiens).
Result: < 5.00

* * *

biological target: Protein kinase C delta type (Homo sapiens); assay: Inhibition of PRKCD
Sequence (Q05655 whole entry): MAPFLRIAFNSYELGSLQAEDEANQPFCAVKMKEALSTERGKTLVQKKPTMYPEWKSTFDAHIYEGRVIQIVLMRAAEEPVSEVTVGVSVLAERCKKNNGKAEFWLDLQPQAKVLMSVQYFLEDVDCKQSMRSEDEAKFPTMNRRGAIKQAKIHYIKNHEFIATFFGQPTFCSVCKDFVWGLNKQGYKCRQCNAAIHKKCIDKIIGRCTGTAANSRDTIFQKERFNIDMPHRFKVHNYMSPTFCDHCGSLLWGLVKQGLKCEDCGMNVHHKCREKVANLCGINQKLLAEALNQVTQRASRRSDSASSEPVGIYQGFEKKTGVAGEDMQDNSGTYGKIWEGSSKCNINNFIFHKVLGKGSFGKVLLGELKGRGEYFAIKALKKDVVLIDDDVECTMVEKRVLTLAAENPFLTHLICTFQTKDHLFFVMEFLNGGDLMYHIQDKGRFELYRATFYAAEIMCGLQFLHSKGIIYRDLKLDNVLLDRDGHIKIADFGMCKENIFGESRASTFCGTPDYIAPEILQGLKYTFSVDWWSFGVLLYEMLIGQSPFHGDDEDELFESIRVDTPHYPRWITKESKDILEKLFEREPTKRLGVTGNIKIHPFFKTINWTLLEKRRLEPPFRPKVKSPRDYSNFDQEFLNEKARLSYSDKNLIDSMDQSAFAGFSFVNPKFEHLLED
pIC50: −log10 of the molar value.
MEASURED ENDPOINT: pIC50

Q: Read the entry `CC(C)(C)NS(=O)(=O)c1cncc(-c2ccn3nc(N)nc3c2)c1` and write its reported pIC50.
Result: < 5.00

Just for reference, ChEMBL document CHEMBL2203257 is where these values come from.
